Target: S-adenosylmethionine synthase isoform type-2 (Homo sapiens, UniProt P31153)
Sequence (P31153 whole entry, canonical isoform): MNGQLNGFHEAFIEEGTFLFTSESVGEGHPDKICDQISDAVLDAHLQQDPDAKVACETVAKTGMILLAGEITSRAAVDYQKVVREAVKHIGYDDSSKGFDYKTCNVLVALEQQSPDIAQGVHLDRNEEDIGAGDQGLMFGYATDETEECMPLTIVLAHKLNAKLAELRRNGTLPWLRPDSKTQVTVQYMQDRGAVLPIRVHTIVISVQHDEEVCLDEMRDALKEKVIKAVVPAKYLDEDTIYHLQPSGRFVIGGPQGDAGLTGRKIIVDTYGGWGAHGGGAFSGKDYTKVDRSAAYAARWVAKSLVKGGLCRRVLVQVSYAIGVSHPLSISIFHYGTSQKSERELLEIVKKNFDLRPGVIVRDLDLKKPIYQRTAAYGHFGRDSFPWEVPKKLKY
Assay: Measurement of Mat2A inhibition is performed in 384 well format absorbance-based assay
pIC50: −log10 of the molar value.

# structure.notation, pIC50
data = [
    ("COc1ccccc1C(=O)n1nc(N)c2ccc([C@H]3[C@H](C)[C@@H]3C)nc21", 7.89),
    ("Cc1ccccc1C(=O)n1nc(N)c2ccc([C@H]3[C@H](C)[C@@H]3C)nc21", 7.46),
    ("COc1ccccc1C(=O)n1nc(N)c2cc(F)c(N3CCCC3)nc21", 7.18),
]
